# TESTED TARGET: T1, TRBC1 peptide (biotinylated) (human, also: biotinylated (site not given here))
# T1 construct: In the monoclonal screen: biotinylated, 0.5 ug/ml on neutravidin-coated plates; In the polyclonal phage ELISA also presented as BSA or OA conjugate of the C-terminal-cysteine form; also called Bio-TRBC1; biotinylated TRBC1
# T1 peptide: VLEDLNKVFPPEVAV
# PROTOCOL: TRF assay, scFv on biotin-peptide/neutravidin plate
No end group written: not given here.
Kindly state TRBC1 binding for each of the entries shown.

**Q:** Form field: reported TRBC1 binding of CP_01_C11 (scFv, not shown: small tags and cut ends, scFv from pSANG10-3F (His6, tri-FLAG), culture supernatant) scFv: QVQLVESGAEVKKPGASVKVSCKASGYTFTGYYMHWVRQAPGQGLEWMGRINPNSGGTNYAQKFQGRVTMTRDTSISTAYMELSRLRSDDTAVYYCASGGAGWNWGQGTMVTVSSGGGGSGGGGSGGGASNFMLTQPHSVSESPGKTATISCTRSSGSIASNYVQWYQQRPGSAPTTVIYEDNQRPFGVPDRFSGSIDSSSNSASLTISGLKTEDEADYYCQSHDSSNVVFGGGTQLTVLGQPAA
**A:** 349000 TRF units

**Q:** // TRBC1 binding lookup, key: CP_01_E07 (scFv, not shown: small tags and cut ends, scFv from pSANG10-3F (His6, tri-FLAG), culture supernatant) scFv: QVQLVESGGGVVQPGRSLRLSCAASGFTFSSYGMHWVRQAPGKGLEWVAVISYDGSNKYYADSVKGRFTISRDNSKNTLYLQMNSLRAEDTAVYYCAKDLGGSGGAFDIWGQGTLVTVSSGGGGSGGGGSGGGASDIVMTQTPHSLSVTPGQPASISCKSSQSLLYSDGKTYLYWYLQKPGQPPQLLIYEVSNRFSGVPDRFSGSGSGTDFTLKISRVEAEDVGVYYCMQSIQLYTFGQGTKVDIKRTAAA
**A:** 332000 TRF units

**Q:** For the binder CP_01_F06 (scFv, not shown: small tags and cut ends, scFv from pSANG10-3F (His6, tri-FLAG), culture supernatant) scFv: EVQLLESGGGVVQPGRSLRLSCAASGFTFSSYGMHWVRQAPGKGLEWVAVISYDGSNKYYADSVKGRFTISRDNSKNTLYLQMNSLRAEDTAVYYCAKDDGAMRYWGQGTMVTVSSGGGGSGGGGSGGGASDIQMTQSPDSLAVSLGERATINCKSSQSVLYSSNNKNYLAWYQQKPGQPPKLLIYWASTRESGVPDRFSGSGSGTDFTLTISSLQAEDVAVYYCQQYYDSPYTFGQGTKVDIKRTAAA , what TRBC1 binding is on record?
**A:** 325000 TRF units
